conditions: in 2-butanone, 293.15 K
measured_quantity: solubility (mole fraction)
Keep the answer to the number alone.

**Q:** What value of measured solubility (mole fraction) is listed for COc1ccc(CN2CCNCC2)c(OC)c1OC.Cl.Cl ?
**A:** 7.72e-06

====

details: in ethanol, 278.15 K
measured_quantity: solubility (mole fraction)

**Q:** Give its solubility (mole fraction) value. Item: COc1ccc(CN2CCNCC2)c(OC)c1OC.Cl.Cl
**A:** 0.000583

====

conditions: in DMF, 313.15 K
measured_quantity: solubility (mole fraction)
Write the number on its own, no unit after it.

**Q:** Using the record for COc1ccc(CN2CCNCC2)c(OC)c1OC.Cl.Cl , report its solubility (mole fraction).
**A:** 0.000857

====

settings: in methanol, 293.15 K
measured_quantity: solubility (mole fraction)
Note: the reply should be a number with no unit written.

**Q:** # input compound: COc1ccc(CN2CCNCC2)c(OC)c1OC.Cl.Cl ; wanted: its solubility (mole fraction)
**A:** 0.00524

====

conditions: in toluene, 293.15 K
measured_quantity: solubility (mole fraction)

**Q:** Form field: reported solubility (mole fraction) of COc1ccc(CN2CCNCC2)c(OC)c1OC.Cl.Cl
**A:** 1.12e-06

====

details: in ethyl acetate, 283.15 K
measured_quantity: solubility (mole fraction)
Reply briefly: the number, and no unit.

**Q:** Using the record for COc1ccc(CN2CCNCC2)c(OC)c1OC.Cl.Cl , report its solubility (mole fraction).
**A:** 0.00209

====

conditions: in isopropanol, 308.15 K
measured_quantity: solubility (mole fraction)

**Q:** Query: solubility (mole fraction); subject: COc1ccc(CN2CCNCC2)c(OC)c1OC.Cl.Cl
**A:** 0.000215

====

settings: in DMF, 323.15 K
measured_quantity: solubility (mole fraction)
Write no unit; give the number alone.

**Q:** Record request: solubility (mole fraction) value, item COc1ccc(CN2CCNCC2)c(OC)c1OC.Cl.Cl
**A:** 0.000975

====

details: in n-butanol, 308.15 K
measured_quantity: solubility (mole fraction)
// return a plain number; no unit text

**Q:** Consider the compound COc1ccc(CN2CCNCC2)c(OC)c1OC.Cl.Cl and give its measured solubility (mole fraction).
**A:** 0.000297

====

conditions: in acetonitrile, 298.15 K
measured_quantity: solubility (mole fraction)
Please give only the number in your answer, with no unit.

**Q:** GET /values?readout=solubility (mole fraction)&item= COc1ccc(CN2CCNCC2)c(OC)c1OC.Cl.Cl
**A:** 1.77e-05

====

settings: in DMF, 293.15 K
measured_quantity: solubility (mole fraction)
Keep it simple and answer with nothing but the number.

**Q:** So what does the record say about solubility (mole fraction) for COc1ccc(CN2CCNCC2)c(OC)c1OC.Cl.Cl ?
**A:** 0.000658

====

conditions: in n-butanol, 283.15 K
measured_quantity: solubility (mole fraction)
// return just the number, without any unit appended

**Q:** Requested field: solubility (mole fraction). Item: COc1ccc(CN2CCNCC2)c(OC)c1OC.Cl.Cl
**A:** 0.000153

====

conditions: in methanol, 303.15 K
measured_quantity: solubility (mole fraction)
Respond numerically, and do not add a unit to the figure.

**Q:** If you can, please state the reported solubility (mole fraction) value of COc1ccc(CN2CCNCC2)c(OC)c1OC.Cl.Cl .
**A:** 0.00682
